target: HLA-B*08:02; test: IEDB peptide-MHC binding, purified MHC/direct/fluorescence; filed as Kd, often an IC50 or EC50 that approximates it; bounds were set here for any values at or beyond the usual limits of such assays; conditions: source organism: Variola virus
pKd: −log10 of the molar value.
Reported values of pKd for individual entries

{"columns": ["SEQUENCE_CONTENT", "ASSAYED_SYSTEM", "pKd"],
 "data": [
  ["SYVFNFHKY", "HLA-B*08:02", "≤ 4.70"]
]}

Lab note: YKEPNSIIL gave pKd of ≤ 4.70

###

target: HLA-C*15:02; assay: IEDB peptide-MHC binding, purified MHC/direct/fluorescence; filed as Kd, often an IC50 or EC50 that approximates it; bounds were set here for any values at or beyond the usual limits of such assays; conditions: source organism: Mycobacterium tuberculosis H37Ra
METRIC: pKd
Reminder that pKd is minus the log10 of a molar concentration.

{"columns": ["SEQUENCE_CONTENT", "pKd"],
 "data": [
  ["VSTAIAALF", 6.35]
]}

Lab note: KAAGAAVAL gave pKd of 5.75

###

target: HLA-A*02:01; test: IEDB peptide-MHC binding, purified MHC/direct/fluorescence; filed as Kd, often an IC50 or EC50 that approximates it; bounds were set here for any values at or beyond the usual limits of such assays; conditions: source organism: Mycobacterium tuberculosis
METRIC: Kd

For the sequence QINELHHSK , the measured Kd on HLA-A*02:01 was ≥ 20 µM

###

biological target: HLA-A*31:01; experiment: IEDB peptide-MHC binding, purified MHC/direct/fluorescence; filed as Kd, often an IC50 or EC50 that approximates it; bounds were set here for any values at or beyond the usual limits of such assays; details: source organism: Reston ebolavirus - Reston
pKd: −log10 of the molar value.
METRIC: pKd

Lab note: QLSLRMLSL gave pKd of ≤ 4.70

###

molecular target: HLA-A*26:02; experiment: IEDB peptide-MHC binding, purified MHC/competitive/fluorescence; filed as Kd, often an IC50 or EC50 that approximates it; bounds were set here for any values at or beyond the usual limits of such assays; settings: source organism: Variola major virus
METRIC: Kd (µM)
Give the value in µM but do not write µM after it.

Lab note: RYPGVMYAF gave Kd of 4.76

###

molecular target: HLA-A*02:01; assay: IEDB peptide-MHC binding, purified MHC/competitive/fluorescence; bounds were set here for any values at or beyond the usual limits of such assays; details: source organism: Vaccinia virus WR
METRIC: IC50 (µM)
Give the value in µM but do not write µM after it.

Before answering, review these 2 worked examples.
{"columns": ["SEQUENCE_CONTENT", "IC50, µM"],
 "data": [
  ["SINVEYRFL", 27.2],
  ["CMIRWLGGI", 0.428]
]}

Lab note: LGADLDAVI gave IC50 of 20.5

###

target: HLA-A*11:01; experiment: IEDB peptide-MHC binding, purified MHC/direct/fluorescence; filed as Kd, often an IC50 or EC50 that approximates it; bounds were set here for any values at or beyond the usual limits of such assays; settings: source organism: Escherichia coli 536
METRIC: Kd

Lab note: RMYGISPWT gave Kd of ≥ 20 µM

###

Reported values of pKd for individual entries
molecular target: HLA-A*68:01; assay: IEDB peptide-MHC binding, purified MHC/competitive/radioactivity; filed as Kd, often an IC50 or EC50 that approximates it; bounds were set here for any values at or beyond the usual limits of such assays; conditions: source organism: Dengue virus 4 Philippines/H241/1956
Reminder that pKd is minus the log10 of a molar concentration.

Before answering, review these 2 worked examples.
{"columns": ["SEQUENCE_CONTENT", "pKd"],
 "data": [
  ["MISYGGGWR", 6.95],
  ["MSAAIKDQK", 7.29]
]}

With those in mind, consider the next sequence.
Lab note: YVFSGDPLK gave pKd of 7.91

###

biological target: HLA-B*15:17; assay: IEDB peptide-MHC binding, purified MHC/competitive/fluorescence; filed as Kd, often an IC50 or EC50 that approximates it; bounds were set here for any values at or beyond the usual limits of such assays; settings: source organism: Bacillus anthracis str. A0488
pKd: −log10 of the molar value.
METRIC: pKd

Lab note: KQGDVFYTA gave pKd of ≤ 4.70

###

target: HLA-A*02:01; test: IEDB peptide-MHC binding, purified MHC/competitive/fluorescence; bounds were set here for any values at or beyond the usual limits of such assays; conditions: source organism: Homo sapiens
Reported values of pIC50 for individual entries
Reminder that pIC50 is minus the log10 of a molar concentration.

{"columns": ["SEQUENCE_CONTENT", "ASSAYED_SYSTEM", "NUMERIC_VALUE"],
 "data": [
  ["SLMASSPTSI", "HLA-A*02:01", 7.68]
]}

Lab note: YPDPVIKV gave pIC50 of 5.30

###

molecular target: HLA-A*68:02; test: IEDB peptide-MHC binding, purified MHC/direct/fluorescence; filed as Kd, often an IC50 or EC50 that approximates it; bounds were set here for any values at or beyond the usual limits of such assays; conditions: source organism: Vibrio vulnificus YJ016
METRIC: Kd

For the sequence LLRRRPYPL , the measured Kd on HLA-A*68:02 was ≥ 20 µM

###

molecular target: HLA-A*26:01; assay: IEDB peptide-MHC binding, purified MHC/competitive/fluorescence; filed as Kd, often an IC50 or EC50 that approximates it; bounds were set here for any values at or beyond the usual limits of such assays; conditions: source organism: Homo sapiens
METRIC: Kd

Lab note: FTGEYLLRL gave Kd of ≥ 20 µM

###

biological target: HLA-A*01:01; test: IEDB peptide-MHC binding, purified MHC/direct/fluorescence; filed as Kd, often an IC50 or EC50 that approximates it; bounds were set here for any values at or beyond the usual limits of such assays; conditions: source organism: Pseudomonas putida
pKd: −log10 of the molar value.
METRIC: pKd

Lab note: DLSNSMRDF gave pKd of ≤ 4.70

###

target: HLA-B*15:01; experiment: IEDB peptide-MHC binding, purified MHC/competitive/fluorescence; filed as Kd, often an IC50 or EC50 that approximates it; bounds were set here for any values at or beyond the usual limits of such assays; settings: source organism: Human immunodeficiency virus 1
METRIC: pKd
Reminder that pKd is minus the log10 of a molar concentration.

For the sequence KSLFNTIAVLY , the measured pKd on HLA-B*15:01 was 5.92

###

biological target: HLA-B*08:01; test: IEDB peptide-MHC binding, purified MHC/direct/fluorescence; filed as Kd, often an IC50 or EC50 that approximates it; bounds were set here for any values at or beyond the usual limits of such assays; conditions: source organism: Salmonella enterica
METRIC: Kd

Lab note: WTDLYTSMS gave Kd of ≥ 20 µM

###

molecular target: HLA-A*26:01; test: IEDB peptide-MHC binding, purified MHC/direct/fluorescence; filed as Kd, often an IC50 or EC50 that approximates it; bounds were set here for any values at or beyond the usual limits of such assays; details: source organism: Variola virus
pKd: −log10 of the molar value.
METRIC: pKd

Before answering, review these 2 worked examples.
{"columns": ["SEQUENCE_CONTENT", "RESULT"],
 "data": [
  ["RYPGVMYAF", "≤ 4.70"],
  ["YKEPNSIIL", "≤ 4.70"]
]}

With those in mind, consider the next sequence.
Lab note: NTDAFSREY gave pKd of 6.01

###

target: HLA-A*31:01; assay: IEDB peptide-MHC binding, purified MHC/competitive/fluorescence; filed as Kd, often an IC50 or EC50 that approximates it; bounds were set here for any values at or beyond the usual limits of such assays; conditions: source organism: Bacillus thuringiensis str. Al Hakam
pKd: −log10 of the molar value.
METRIC: pKd

Lab note: RTHLGFIFQ gave pKd of ≤ 4.70

###

molecular target: HLA-A*26:01; assay: IEDB peptide-MHC binding, purified MHC/competitive/fluorescence; filed as Kd, often an IC50 or EC50 that approximates it; bounds were set here for any values at or beyond the usual limits of such assays; settings: source organism: Entamoeba dispar SAW760
METRIC: Kd

For the sequence STYQFSLMQ , the measured Kd on HLA-A*26:01 was ≥ 20 µM

###

biological target: HLA-B*39:01; assay: IEDB peptide-MHC binding, purified MHC/competitive/fluorescence; filed as Kd, often an IC50 or EC50 that approximates it; bounds were set here for any values at or beyond the usual limits of such assays; conditions: source organism: Zaire ebolavirus
pKd: −log10 of the molar value.
Reported values of pKd for individual entries

Lab note: RLAKLTEAI gave pKd of ≤ 4.70

Lab note: FRYEFTAPF gave pKd of 9.15

Lab note: HQKKNEISF gave pKd of ≤ 4.70

Lab note: FPSNMMVVT gave pKd of ≤ 4.70

Lab note: ATAAATEAY gave pKd of ≤ 4.70

Lab note: GLSFLNPEK gave pKd of ≤ 4.70
